tested on: MS2 coat protein; experiment: apparent KD of MS2 coat protein; designed switch direction (-1 OFF switch, 1 ON switch): -1; higher = weaker reporter binding; settings: input ligand: FMN 200 uM
reported_endpoint: apparent KD of MS2 coat protein

Sample records with apparent KD of MS2 coat protein:
CGUAAGCUAGGAUAUGCUUUGGGAAAGCAUUCCUUCGAUAAACUUGAGGAUCACCCAAGUAGAAGGAGCUUACC [salish99_ex2_r4_009] (Eterna round: R97, puzzle: Exclusion 2) ... 11.7 nM
UAAUUAAAUGUAAGGAUAUGGCAAUGCGGUGGCAGUUAGAAGGUACAUGAGGAUCACCCAUGUGUGUAUCGUGA [Eternabot (L1) Solution 93] (Eterna round: R97, puzzle: Brourd's mod of Exclusion 4) ... 233 nM
GGCACACAUGUAGGAUAUCUGCACGUUUAGUGCAGAGAAGGACAUGAGGAUCACCCAUGUAAUUAAGAUCAAUUAUUAAGUGCC [ENG1/3-A2] (Eterna round: R96, puzzle: Exclusion NG 1) ... 564 nM

Data request: Name the reported apparent KD of MS2 coat protein value associated with the sequence UAGAAUCGAGGAUAUACAUGAGGAUCACCCAUGUGUGGCCAUUUGGUGUGGUCGUCAGGUAGAAGGCGAUUACA [Exclusion 3 - Mod of Jieux's Gilly Gone Silly 23 v.5] (Eterna round: R96, puzzle: Exclusion 3)
Data returned: 173 nM

Data request: Name the reported apparent KD of MS2 coat protein value associated with the sequence GGAUAAAAGACAGGAUAUGAGGAGAGAGAGAGAUCAGAAGGGUCACAUGAGGAUCACCCAUGUGAGUUCUCGAUAAGAAACACG [Prohibition 54 - Jieux - Exclusion NG 1] (Eterna round: R96, puzzle: Exclusion NG 1)
Data returned: 15.5 nM

Data request: Name the reported apparent KD of MS2 coat protein value associated with the sequence GAGAAACAUGAGGAUCACCCAUGUGAGGAUAUGAGCACGCCGGUGACGGUGAUAAGAAUCAGAAGGCACAAAGG [Mat - Exclusion 1 - JL Mod - D33] (Eterna round: R97, puzzle: Exclusion 1)
Data returned: 422 nM

Data request: Name the reported apparent KD of MS2 coat protein value associated with the sequence ACAAGCUAAAUCAUAUCUUACAUGAGGAUCACCCAUGUUUUUGCAAUUAUGUUUGGGCUCUUUUGUGCUCGUCUUAU [JR_STOV1_Sub050] (Eterna round: R97, puzzle: Sensor, turn-off variant 1)
Data returned: 16.1 nM

Data request: Name the reported apparent KD of MS2 coat protein value associated with the sequence UCUUGUGUUGAGGAUAUGCGCCGGCUCGCUGGCGCAGAAGGCGGCACAUGAGGAUCACCCAUGUCAGUUCGCGC [salish99_ex6_r004_007] (Eterna round: R97, puzzle: Exclusion 6)
Data returned: 56.3 nM

Data request: Name the reported apparent KD of MS2 coat protein value associated with the sequence GCUAUUAGAGGAUAUACAUGAGGAUCACCCAUGUGGUCAAGUCGGUGCCAACUGUUAGGUAGAAGGCUGGAGCC [Eternabot (L1) Solution 76] (Eterna round: R97, puzzle: Exclusion 3)
Data returned: 44.8 nM

----------
# Lookup of reported apparent KD of MS2 coat protein keyed by entry
test system: MS2 coat protein; assay: apparent KD of MS2 coat protein; designed switch direction (-1 OFF switch, 1 ON switch): -1; higher = weaker reporter binding; conditions: input ligand: microRNA oligo, concentration not stated
Express it in nM; write the number only.

Sample records with apparent KD of MS2 coat protein:
GCACGGAGUGUAGGAUAUCUGUGCGAUUAGCUCAGAGAAGGACACAUGAGGAUCACCCAUGUGUAACUCAACAUUAAUCCGUGC [Eli exng1 - 074] (Eterna round: R96, puzzle: Exclusion NG 1) ... 7.59
UUAAUUAGCUCGCUAGAUCCUCACAUGAGGAUCACCCAUGUGCAGGAUAUCAGCUCGAUUAGAGCUGAGAAGGGCACUGCGAGC [ExNG3/10-A1] (Eterna round: R96, puzzle: Exclusion NG 3) ... 89.5

Now turn to the next sequence.
Data request: Name the reported apparent KD of MS2 coat protein value associated with the sequence UUAUUAUAUGUAGGAUAUGCAUAUUAUUAUUAUGCAGAAGGACAUGAGGAUCACCCAUGUAUAUUAUUAUUGUAUAUUAUAUAU [Title] (Eterna round: R96, puzzle: Exclusion NG 1)
Data returned: 25.7

----------
test system: MS2 coat protein; assay: apparent KD of MS2 coat protein; designed switch direction (-1 OFF switch, 1 ON switch): -1; higher = weaker reporter binding; conditions: Eterna round: R95; input ligand: microRNA oligo, concentration not stated
# Lookup of reported apparent KD of MS2 coat protein keyed by entry
Express it in nM; write the number only.

CAGUACUGAGGAUAUACAUGAGGAUCACCCAUGUGCUUUAGCUAGGAUACUAGCACUAGUAGAAGGCAGUACUG [Fiskers Ex 3 828 mod 10] (puzzle: Exclusion 3) ... 12.3

Data request: Param readout= apparent KD of MS2 coat protein; system= MS2 coat protein; entry= UUUUAACAUGAGGAUCACCCAUGUGAGGAUAUCGAAAUUUAUAUUUAUAUUUAUUAAACGAGAAGGCACAUUUU [JMF 99] (puzzle: Exclusion 1) ; returns value.
Data returned: 66.9

Data request: Param readout= apparent KD of MS2 coat protein; system= MS2 coat protein; entry= UUUAAUUUUUUUUUUUUACAAGCUUUUUGCUCGUCUUAUACAUGAGGAUCACCCAUGUAAGUGGAGGAUAAAUUAUC [JMF 33] (puzzle: Sensor v3, turn-off variant 2) ; returns value.
Data returned: 23.8

Data request: Param readout= apparent KD of MS2 coat protein; system= MS2 coat protein; entry= CCUGCACAUGAGGAUCACCCAUGUCAGGAUAUCUCGCCGUCGGCUUGCCGACGGUAUUAGAGAAGGGACAAGGG [JL Tixe mod 2] (puzzle: Exclusion 1) ; returns value.
Data returned: 21.9

Data request: Param readout= apparent KD of MS2 coat protein; system= MS2 coat protein; entry= GGUACUAACACGAUAGUGUUAGUACUAUAAGCUUGUGUUACAUGAGGAUCACCCAUGUCCUCAUAGGCUCGUCUUAU [Mat - Sensor v3 - Turn-off var 2 - D86] (puzzle: Sensor v3, turn-off variant 2) ; returns value.
Data returned: 30.8

----------
# Lookup of reported apparent KD of MS2 coat protein keyed by entry
test system: MS2 coat protein; assay: apparent KD of MS2 coat protein; designed switch direction (-1 OFF switch, 1 ON switch): -1; higher = weaker reporter binding; conditions: Eterna round: R95; input ligand: FMN 200 uM
Express it in nM; write the number only.

AUGAAGUAAGGAUAUACAUGAGGAUCACCCAUGUAAAGAAAAGUAAUGGGAGUAAGAAGUAGAAGGUACGAGAA [JR_Exclu3_Sub061] (puzzle: Exclusion 3) ... 53.4

Data request: Name the reported apparent KD of MS2 coat protein value associated with the sequence CGUGUCUUUCACGUGAGUGGUGGGUGCAACAGGUGGGUUACAUGAGGAUCACCCAUGUCCUCACUUGCUCGUCUUUU [Grok-var2-04] (puzzle: Sensor v3, turn-off variant 2)
Data returned: 36.1

Data request: Name the reported apparent KD of MS2 coat protein value associated with the sequence GUAUAACUACACGGGCUCAACAUGAGGAUCACCCAUGUCACAUACGCAAGCUUUUUGCUUGUCUUAUCUGUCCGUGA [Quleorraa] (puzzle: Sensor v3, turn-off variant 1)
Data returned: 12.3

Data request: Name the reported apparent KD of MS2 coat protein value associated with the sequence AGACGUCAAGUCAGGAUAUAGAGGCAAGUCCACCGCUAGAAGGGACAUGAGGAUCACCCAUGUAGGGUUUAGCU [Zainsoed] (puzzle: Brourd's mod of Exclusion 4)
Data returned: 101

Data request: Name the reported apparent KD of MS2 coat protein value associated with the sequence GGGAUGUCAGGAUAUCCAAAAGUCCGCCAGUACGGCAGACAGGAGAAGGGACAUGAGGAUCACCCAUGUAAAGA [Leinrete] (puzzle: Exclusion 4)
Data returned: 89

----------
test system: MS2 coat protein; experiment: apparent KD of MS2 coat protein; designed switch direction (-1 OFF switch, 1 ON switch): -1; higher = weaker reporter binding; details: Eterna round: R95; input ligand: none
Label Y for high-side apparent KD of MS2 coat protein (at or above 60 nM) and N for low-side apparent KD of MS2 coat protein (below it).

Some entries whose results are on file:
AGAAAUGCCCAUGGCCACAAGCUUUUUGCCUGUCUUACCACAUGAGGAUCACCCAUGUGACAUGGGCUCCUGAUAAU [Didilaeren] (puzzle: Sensor v3, turn-off variant 2) ... N
UAUUACUCAGGAUAUAUGAUGUGAAACAUGAGGAUCACCCAUGUAAUAUUAUGGAUGUAAAUAGAAGGGAGAUAAU [Mat - Exclusion 5 - JL mod - D21] (puzzle: Exclusion 5) ... N
AGUACUAACUCGAAAGUGUUAGUACAAUAAGCUUGUGAAACAUGAGGAUCACCCAUGUCCUCAUAAGCUCGUCUUAU [salish99_TOv2_r3_022] (puzzle: Sensor v3, turn-off variant 2) ... N

Data request: # bool: apparent KD of MS2 coat protein of AGUACUGACACGUCGGUGUUAGUACAAUAAGCUUGUGAAACAUGAGGAUCACCCAUGUCCUCAUAAGCUCGUCUUAU [salish99_TOv2_r3_081] (puzzle: Sensor v3, turn-off variant 2) >= 60 nM
Data returned: N

Data request: # bool: apparent KD of MS2 coat protein of GAGUGACAUGAGGAUCACCCAUGUGAGGAUAUCCGAUGGACCAAAUUAACAAUAGAAGGGAGAAGGCACAUAAA [Exclusion 1 V7] (puzzle: Exclusion 1) >= 60 nM
Data returned: Y

Data request: # bool: apparent KD of MS2 coat protein of AGUACUAACACGGGAGUGUUAGUACAAUAAGCUUGUGAAACAUGAGGAUCACCCAUGUCCUCAUAAGCUCGUCUUAU [salish99_TOv2_r3_060] (puzzle: Sensor v3, turn-off variant 2) >= 60 nM
Data returned: N

Data request: # bool: apparent KD of MS2 coat protein of AUAGUAGAAGUGAGGAUAUCGUAGAUUUUAGGAAACGAGAAGGCACAUGAGGAUCACCCAUGUAAGAUGGAGGU [JR_BMOE4_Sub051] (puzzle: Brourd's mod of Exclusion 4) >= 60 nM
Data returned: Y

Data request: # bool: apparent KD of MS2 coat protein of GCCAGAGCAGGAUAUUCAAAACCUCACAUGAGGAUCACCCAUGUGGCCGAAAGGCCGGGAGGAGAAGGGCUCUGGC [Fiskers Ex 5 - 1] (puzzle: Exclusion 5) >= 60 nM
Data returned: N

Data request: # bool: apparent KD of MS2 coat protein of CGGUGCUGAGGAUAUACAUGAGGAUCACCCAUGUGUUCCAGCUAGCGUACUGGCAGGUGUAGAAGGCGGUACUG [JL-ex3-3.41 Brourd mod] (puzzle: Exclusion 3) >= 60 nM
Data returned: N
